# Experiment: The drug is tested on WLS-007 corresponding to human gut metagenome with ENA study accession number: PRJEB37062 and ENA sample accession number: ERS12561742 for biotransformation under anaerobic condition. The drug concentrations were measured over 9 timepoints collected between 0 and 24 hours of incubation by liquid-chromatography-coupled mass spectrometry (LC–MS); further: call rule not given here
# Settings: 2 µM

{"Molecule": "CN1CCc2c(c3ccccc3n2Cc2ccccc2)C1.CN1CCc2c(c3ccccc3n2Cc2ccccc2)C1.O=S(=O)(O)c1cccc2c(S(=O)(=O)O)cccc12", "Bacterial Biotransformation": "Compound NOT metabolized"}
{"Molecule": "CCCC(=O)Nc1ccc(OCC(O)CNC(C)C)c(C(C)=O)c1 (stereo not drawn)", "Bacterial Biotransformation": "Compound NOT metabolized"}
{"Molecule": "C#C[C@]1(O)CC[C@H]2[C@@H]3CCC4=CC(=O)CC[C@@H]4[C@H]3CC[C@@]21CC", "Bacterial Biotransformation": "Compound metabolized"}
{"Molecule": "CCOC(=O)[C@H](CCc1ccccc1)N[C@@H](C)C(=O)N1[C@H](C(=O)O)C[C@@H]2CCC[C@@H]21", "Bacterial Biotransformation": "Compound metabolized"}
{"Molecule": "O=C(Nc1ccccc1)OCC(CN1CCCCC1)OC(=O)Nc1ccccc1 (stereo not drawn)", "Bacterial Biotransformation": "Compound NOT metabolized"}
{"Molecule": "O=C(O)COCCN1CCN(C(c2ccccc2)c2ccc(Cl)cc2)CC1 (stereo not drawn)", "Bacterial Biotransformation": "Compound metabolized"}
{"Molecule": "CCN1CCCC1CNC(=O)c1cc(S(N)(=O)=O)ccc1OC (stereo not drawn) [SULPIRIDE]", "Bacterial Biotransformation": "Compound NOT metabolized"}
{"Molecule": "CCC1(c2ccc(N)cc2)CCC(=O)NC1=O (stereo not drawn) [AMINOGLUTETHIMIDE]", "Bacterial Biotransformation": "Compound NOT metabolized"}
{"Molecule": "CN(C)CC(c1ccc(O)cc1)C1(O)CCCCC1.O=C(O)CCC(=O)O (stereo not drawn) [DESVENLAFAXINE SUCCINATE]", "Bacterial Biotransformation": "Compound NOT metabolized"}
{"Molecule": "COc1ccc2[nH]c([S+]([O-])Cc3ncc(C)c(OC)c3C)nc2n1 (stereo not drawn)", "Bacterial Biotransformation": "Compound metabolized"}
{"Molecule": "CC(C)c1nc(CN(C)C(=O)N[C@H](C(=O)N[C@@H](Cc2ccccc2)C[C@H](O)[C@H](Cc2ccccc2)NC(=O)OCc2cncs2)C(C)C)cs1", "Bacterial Biotransformation": "Compound metabolized"}
{"Molecule": "CN1CCc2cccc3c2[C@H]1Cc1ccc(O)c(O)c1-3", "Bacterial Biotransformation": "Compound NOT metabolized"}
{"Molecule": "NC(CO)(CO)CO.O=C(c1ccccc1)c1ccc2n1CCC2C(=O)O (stereo not drawn)", "Bacterial Biotransformation": "Compound metabolized"}
{"Molecule": "CN(C)CCC=C1c2ccccc2C=Cc2ccccc21", "Bacterial Biotransformation": "Compound metabolized"}
{"Molecule": "Nc1ccc(/N=N/c2ccccc2)c(N)n1", "Bacterial Biotransformation": "Compound metabolized"}
{"Molecule": "COc1ccc2c(c1OC)C(=O)O[C@@H]2[C@H]1c2c(cc3c(c2OC)OCO3)CCN1C", "Bacterial Biotransformation": "Compound NOT metabolized"}
{"Molecule": "Cc1nc2n(c(=O)c1CCN1CCC(c3noc4cc(F)ccc34)CC1)CCCC2O (stereo not drawn)", "Bacterial Biotransformation": "Compound metabolized"}
{"Molecule": "CCN(CC)CCNC(C(=O)OCCC(C)C)c1ccccc1.Cl.Cl (stereo not drawn)", "Bacterial Biotransformation": "Compound metabolized"}
